Procedure Text: soluble on expression in E. coli; label from the status in PepcDB or PDB records
Quantity: soluble on expression in E. coli

{"Chain": "MLQGFRWSPHGFWVCQARFFNKKIRQRTHYEVLGVESTATLSEIKSAFYAQSKKVHPDNSSEESATASFLELKNAYDVLRRPADRRLYDYQLRGGGGRYPNGGQRYQYPNTAPQYDFSRDWSTYWSQNPDNSRSSREERDKSSREFMKSI", "Reported Measurement": "not soluble"}
{"Chain": "MGHHHHHHSHDVPEMPSIPNPFPELCCSPFTSVLSADLFPKANSRKKQVIKVYSEDETSRALDVPSDITARDVCQLLILKNHYIDDHSWTLFEHLPHIGVERTIEDHELVIEVLSNWGIEEENKLYFRKNYAKYEFFKNP", "Reported Measurement": "not soluble"}
{"Chain": "MGSDKIHHHHHHMSLITDLPAIFDQFSEARQKGFLTVMDLKEQNVPLVGTYCTFMPQEIAMAAGAVVVSLCSTSDETIEEAEKDLPRNLCPLIKSSYGFGKTDKCPYFYFSDLVVGETTCDGKKKMYEYMAEFKAVHVMQLPNSASDAASRALWKTEILRLQQVIEARFGTPISEAALREAIVLKNRERRALAHFYRLGQLNPPALSGGDILKVVYGATFRFDKTALIDELHAMAERIHQEWQQGKRLEPRPRILITGCPIGGAAEKVVRAIEENGGWVVGYENCTGAKATERCVAEEGDVYDALTDKYLAIGCSCISPNDQRLQLLSQMVEEYQADGVIDVILQACHTYAVESLAIKRHLRQQHDLPYMAIETDYSTADLGQLSTRVAAFIEML", "Reported Measurement": "not soluble"}
{"Chain": "MGRAAEVPGPEPGQQEQLVFGSGDAVELSCPPPGGGPMGPTVWVKDGTGLVPSERVLVGPQRLQVLNASHEDSGAYSCRQRLTQRVLCHFSVRVTDAPSSGDDEDGEDEAEDTGVDTGAPYWTRPERMDKKLLAVPAANTVRFRCPAAGNPTPSISWLKNGREFRGEHRIGGIKLRHQQWSLVMESVVPSDRGNYTCVVENKFGSIRQTYTLDVLERSPHRPILQAGLPANQTAVLGSDVEFHCKVYSDAQPHIQWLKHVEVNGSKVGPDGTPYVTVLKTAGANTTDKELEVLSLHNVTFEDAGEYTCLAGNSIGFSHHSAWLVVLPAEEELVE", "Reported Measurement": "soluble"}
{"Chain": "MERHVPEPTHTLEGWHVLHDFRLLDFARWFSAPLEAREDAWEELKGLVREWRELEEAGQGSYGIYQVVGHKADLLFLNLRPGLDPLLEAEARLSRSAFARYLGRSYSFYSVVELGSQEKPLDPESPYVKPRLTPRVPKSGYVCFYPMNKRRQGQDNWYMLPAKERASLMKAHGETGRKYQGKVMQVISGAQGLDDWEWGVDLFSEDPVQFKKIVYEMRFDEVSARYGEFGPFFVGKYLDEEALRAFLGL", "Reported Measurement": "soluble"}
{"Chain": "MGSDKIHHHHHHWIAFAGNMNTTIDNESDELKAIDYKDLEVKEKLGEGASGEVYRAMYGGSDVALKLFRGAATSDGLPEDEIKVMQRLGPDENSVSILGSVVGAPEGQLAALLPLVPPSFTILGNPPTFDSCTRDTYPKDKTFSLRTAIEILEAIARVCAHLHSRGLSHGDLYAHNILVQIGVDGEPTRTKLSDYGAASFSSVLKPHQVALLERIEVRAFGALAEELMDRLEEADAEGVAHRLSSVIVKSMRADVASRPSFSEIHQEMVAFLKEV", "Reported Measurement": "not soluble"}
{"Chain": "MTLSSKTTKKNTSQHKHPRYVDCDNCSMRAICQPIGADNQAIDLTSNYLTRRVEVSTEQSSSLPLNQSAGVALFEQASPLTAIFAVCSGTFKLCQKNDDGLDRIVGFRFPGELIGEDALFLEVYNYSAVALGDNSVCEVYVDSLSACSQLAPELQQNLIQLLTKQSYEQQRNAHAITGKKSADCLLAAFLLNICQRNAKHSGNETEIELTISRQDIASFLGMRRETLSRLLSKFQHEQLISLNGKQLSLLSLNHLKQLSNQ", "Reported Measurement": "not soluble"}
{"Chain": "MGSDKIHHHHHHMKIAIVGSGNGAVTAAVDMVDKGHDVRLYCRNESISKFDVALEKGGFDFYNEGEEKFIEFTDISDDMEYVLDGADIVQVIIPSSFIEYYAKVMSKFVTNDHLIFFNIAASMGSIRFMNVLEDRHIDVHPHFAEANTLTYGTRVDFNNAKVDLSLNVRRVFFSTFDRSELNESYEKVSKIYDYLVKEESLLKTNLENGNPEVHPGPTLLNVGRIDYSEEFSLYKEGITKHTVRLLHAIEIERLNLGRKLGFELSTAKESRIQRGYLERKDEDEPLNRLFNTSPVFSQIPGPNHVENRYLTEDIAYGLVLWSSLGRVIDVPTPNIDAVIMIASTILERDFFEEGLTIEELGLDKLGLE", "Reported Measurement": "not soluble"}
{"Chain": "MGSDKIHHHHHHMEGKKTTQEEYQKCVNAVVDYINLHLGEEIDLKSLARISHFSPFYFHRIMKAFLGEPIGTFIVRTRTEAAARLLRYSSTSISDIAYRIGYASPSSFSKIFKQMYGISPTEYRNNKNYVIMKPAIIKPDLELKKEIRELPQRNVIYIRLFGDYKLNDYAGTWMHLIQFVKEQNLPMGDPSPLCIYHDDPKVTPTDKLRTDVCMLLPSNARPKGNVGFKQLPAGRYATFLYKGSYDQLQAVYDTIYGKYLPEMECTLSDEPSAERYLNDPSCTPPEELLTEIYIPIR", "Reported Measurement": "not soluble"}
{"Chain": "MSLSKHHIIVKSGSTLEQLAKAKTFAFDKTGTLTQNQLVIQDVLPENGFDKETIQSYAASLEQQSDHIIANSLVQGTDKNLIQAVSNLQESTGNGVSGTVDGKNVMVGKLSYVAPDANVNKAKTTAVYVSVDGKYAGCITFKDRLRPETPQTLARLRKQGAKHIMMLTGDNKDVAQAIADVAGVDDVRASLLPAQKIEAIKNVAPENRPVVMTGDGINDAPSLTAADVGIAMGAKGASAASESADAVIMVNDLSKINDAVAIAKHTMKVAEGHHHHHH", "Reported Measurement": "soluble"}
{"Chain": "MSLHSLTRIKVLQRRCTVFHSQCESILLRYQDEDRGLQAEEEAILEQIAGLKLLLDTLRAENRQLSREEIYTLLRKQSIVRRQIKDLELQIIQIQEKRSELEKKREEFQKKSKYWLRKEGNYQRWIIRQKRFYIQREIQQEEAESEEIIEGHHHHHH", "Reported Measurement": "soluble"}

----------
Procedure Text: soluble on expression in E. coli; label from the status in PepcDB or PDB records

{"Chain": "MGSDKIHHHHHHMLATYLKSLNENDRSLYNEGEDVIQGLIQSPKTLPPKYFYDDYGSELFEQICELSEYYPTRTEAWILRQYADEIAQITGNCELVELGSGSSTKTLFLLDAYQKIASHCRYIPIDVSHGILKSSVLKLQQKYPNFFVEGLIGTYEQALIKLESTFAASRMIFFLGSSLGNFNPRECDDFLRQITRTLQAGDYFLLGIDLQKPKEILEPAYNDSQGVTAAFNLNILSHLNWRFQGNFDLSLFTHQAIYNENDAQIEMYLHCQKSHEVSLEALDLQVSFAGGESILTEISRKFDLVNMQKQLETHGLKTLKTWTDPNQWFGLILCQA", "soluble on expression in E. coli": "not soluble"}
{"Chain": "MEIPPTNYPASRAALVAQNYINYQQGTPHRVFEVQKVKQASMEDIPGRGHKYRLKFAVEEIIQKQVKVNCTAEVLYPSTGQETAPEVNFTFEGETGKNPDEEDNTFYQRLKSMKEPLEAQNIPDNFGNVSPEMTLVLHLAWVACGYIIWQNSTEDTWYKMVKIQTVKQVQRNDDFIELDYTILLHNIASQEIIPWQMQVLWHPQYGTKVKHNSRLPKEVQLE", "soluble on expression in E. coli": "soluble"}
{"Chain": "MGSDKIHHHHHHMWQAISRLLEEHHGTADIQEHRELPGGEIHPAWYVRYGEHDVFVKCDSREMLAKFTAEADQLHLLSRSNTVRVPKVYGVGSSRDYSFLLLQYLPVKPLDAHSAWCLGEQLARLHQWSDQPQFGLDFDNDLSTTPQPNSWQRRWATFFAEQRIGWQLQLAAEKGMHFGHIETLIARVDERLAGHQPQPSLLHGDLWPDNCANSQDGGYLFDPACYWGDRECDLAMLPRYPALPAQIYDGYQSVWPLDKDFIDRQPIYQIYYLLNRANLFGGKNIVEAQQLIERQLLS", "soluble on expression in E. coli": "not soluble"}
{"Chain": "MAHHHHHHMRGWTAIRSPQLPTLHHRTVVEHTRPQKKKAKKKHGGRVRLCVWRCRCLPALAAKKTKQEGKKCVLRPTSPRRTPTRHGSLSAPFVAAPPHACSRRGAQGRRHERVGGCASGAVGRETHGTPHRKSAEETIKRGKSRKKKKTSIVIAPKSKKEGMWGVRELKRTN", "soluble on expression in E. coli": "soluble"}
{"Chain": "MMEDNKMTESEMKFRDTTIRNFFDKEDRLKSIPGQKKKKLVLLEHLISKLNAENQYTEKEINTFIKQYHDDFCTIRREFIVQGFMNREDNMYCINGREVWTKWEELK", "soluble on expression in E. coli": "not soluble"}
{"Chain": "MSLKLVEILVLGQVLRLNVPIEQEELLRQAARNLDILVSEMKEKTGLIQLDRVLSIVALNLSFELSQEKNKTAKIEEVLRTGIQQLDHSLENIRVTKEPH", "soluble on expression in E. coli": "soluble"}
{"Chain": "IVGGYTCAANSIPYQVSLNSGSHFCGGSLINSQWVVSAAHCYKSRIQVRLGEHNIDVLEGNEQFINAAKIITHPNFNGNTLDNDIMLIKLSSPATLNSRVATVSLPRSCAAAGTECLISGWGNTKSSGSSYPSLLQCLKAPVLSDSSCKSSYPGQITGNMICVGFLEGGKDSCQGDSGGPVVCNGQLQGIVSWGYGCAQKNKPGVYTKVCNYVNWIQQTIAAN", "soluble on expression in E. coli": "soluble"}
